assay: chemical genetic growth profiling, strain panel (AID 1159580);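 note: tested at 20 µM; growth read once vehicle control cultures reached saturation at 30 °C; 1 = growth at the plate median or of vehicle wells; lower values mean less growth of the strain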; settings: S. cerevisiae deletion strains, growth OD, locus YOR001W, strain rrp6, hits give low values
Hit rate of the full screen: of about 5,500 compounds, about 2,000 (36%) were called active. About 18% were inconclusive and are not listed. The list shows a part of the results. Where a SMILES comes first, the peptide text is derived from it. Bridges are numbered along the chain shown (N, C = ends). [ ]: non-standard residue; d: D form. The star is where a group is joined. Octanoyl(6-Me) = CCC(C)CCCCC(=O)*; Dab = NCC[CH](N)C(=O)O
Rule: normalized growth below 1 gives 1.0. Equal to or above 1 gives 0.0.

Compound: CN(C)C(=N)N=C(N)N
Class: 1.0
//
Compound: C1CCC(C(CC2CCCCN2)C2CCCCC2)CC1 (configuration not stated)
Class: 1.0
//
Compound: O=C(O)c1cc(=O)c2cccc(O)c2[nH]1
Class: 1.0
//
Compound: COc1ccc2c(=O)ccoc2c1
Class: 0.0
//
Compound: NCCc1cc(O)c(O)cc1O
Class: 1.0
//
Compound: CN(C)CCc1c[nH]c2ccc(CS(=O)(=O)N3CCCC3)cc12
Class: 1.0
//
Compound: Cc1cc(=O)n(-c2ccccc2)n1C
Class: 0.0
//
Compound: Cc1cc(C(C)(C)C)c(O)c(C)c1CC1=NCCN1
Class: 1.0
//
Compound: CCC(C)CCCCC(=O)NC(CCN)C(=O)NC(C(=O)NC(CCN)C(=O)NC1CCNC(=O)C(C(C)O)NC(=O)C(CCN)NC(=O)C(CCN)NC(=O)C(CC(C)C)NC(=O)C(Cc2ccccc2)NC(=O)C(CCN)NC1=O)C(C)O (configuration not stated) ({Octanoyl(6-Me)}-[Dab]T[Dab][Dab][Dab]FL[Dab][Dab]T; lactam 4-C; configuration not given here)
Class: 1.0
//
Compound: CNS(=O)(=O)Cc1ccc2[nH]cc(CCN(C)C)c2c1
Class: 0.0

###

Entries and their normalized growth values follow.
assay: chemical genetic growth profiling, strain panel (AID 1159580); conditions: S. cerevisiae deletion strains, growth OD, locus YLR403W, strain SFP1, hits give low values
Among all 5,500 compounds or so, about 2,000 (36%) were called active. Inconclusive results (about 18%) are left out. Some of the results follow.
Reported property: normalized growth

Molecule: CN1c2ccccc2C(C)(C)C12C=Cc1cc(O)ccc1O2 (centres undefined)
Observed measurement: 1.01
--
Molecule: Cc1ccc(OCc2n[nH]c(=S)n2Cc2ccccc2)c2c1CCC2
Observed measurement: 0.84
--
Molecule: CC(C)(C)C(=O)c1sc2sc(C(=O)C(C)(C)C)c(N)c2c1N
Observed measurement: 0.851
--
Molecule: CSc1nnc(COc2ccc(C)c3c2CCC3)n1-c1ccccc1
Observed measurement: 0.968

###

assay: chemical genetic growth profiling, strain panel (AID 1159580); details: S. cerevisiae deletion strains, growth OD, locus YGR135W, strain pre9, hits give low values
The whole screen tested about 5,500 compounds, of which about 2,000 (36%) were called active. About 18% were inconclusive and are not listed. This is one part of the list.
Entries and their normalized growth values follow.
Reported property: normalized growth

Compound: COc1cnc(NS(=O)(=O)c2ccc(N)cc2)nc1
Reported property: normalized growth
Observed measurement: 0.988

Compound: CC1(C)C=Cc2cc3ccc(=O)oc3cc2O1
Reported property: normalized growth
Observed measurement: 0.907

Compound: NCCc1c[nH]c2ccccc12
Reported property: normalized growth
Observed measurement: 0.989

Compound: CNC(Cc1c[nH]c2ccccc12)C(=O)O (configuration not stated)
Reported property: normalized growth
Observed measurement: 0.973

Compound: COc1ccc(C(=O)c2ccccc2)c(O)c1O
Reported property: normalized growth
Observed measurement: 0.846

Compound: CC(=O)O[C@@H]1CC[C@]2(C)C3CC[C@]4(C)C(=O)CCC4C3CC[C@H]2C1 (some centres not stated)
Reported property: normalized growth
Observed measurement: 0.876

Compound: CCOc1cccc(C(=O)c2ccc(O)c(O)c2O)c1
Reported property: normalized growth
Observed measurement: 0.777

###

test: chemical genetic growth profiling, strain panel (AID 1159580); details: S. cerevisiae deletion strains, growth OD, locus YML120C, strain ndi1, hits give low values
Among all 5,500 compounds or so, about 2,000 (36%) were called active. Not shown: some 18% with an inconclusive outcome. The list shows a part of the results.

Compound: NC1C[C@H]1c1ccccc1 (stereo not given in full)
normalized growth: 1.01
//
Compound: Cc1onc(-c2ccccc2Cl)c1C(=O)N[C@@H]1C(=O)N2[C@@H]1SC(C)(C)[C@@H]2C(=O)O
normalized growth: 1.04
//
Compound: COc1cccc(OC)c1C(=O)N[C@@H]1C(=O)N2[C@@H]1SC(C)(C)[C@@H]2C(=O)O
normalized growth: 0.992
//
Compound: COc1ccc(C2C(=O)c3ccccc3C2=O)cc1
normalized growth: 0.992
//
Compound: Cc1onc(-c2ccccc2)c1C(=O)NC1C(=O)N2[C@@H]1SC(C)(C)[C@@H]2C(=O)O (stereo not given in full)
normalized growth: 1.02

###

assay: chemical genetic growth profiling, strain panel (AID 1159580);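 note: tested at 20 µM; growth read once vehicle control cultures reached saturation at 30 °C; 1 = growth at the plate median or of vehicle wells; lower values mean less growth of the strain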; conditions: S. cerevisiae deletion strains, growth OD, locus YNL153C, strain GIM3, hits give low values
The whole screen tested about 5,500 compounds, of which about 2,000 (36%) were called active. Roughly 18% stayed inconclusive and do not appear here. This is one part of the list.
Rule: normalized growth below 1 gives Y. Equal to or above 1 gives N.

Compound: CC(=O)[O][Hg][c]1ccccc1
Class: Y
//
Compound: Cc1cc(C)cc(N2C(=O)CC(Sc3ccccc3C(=O)O)C2=O)c1 (configuration not stated)
Class: Y
//
Compound: Cc1c(NC(=O)c2cccnc2)c(=O)n(-c2ccccc2)n1C
Class: Y
//
Compound: Cn1c(=O)c(-c2ccccc2)c(O)c2ccccc21
Class: Y
//
Compound: NC(C(=O)O)c1cc(=O)[nH]o1 (configuration not stated)
Class: N
//
Compound: CNS(=O)(=O)c1cc(Br)ccc1S(=O)c1ccccc1C(=O)O (configuration not stated)
Class: N
//
Compound: COc1cc(/C=C2/SC(=S)NC2=O)cc(OC)c1OC
Class: Y
//
Compound: O=C(CCc1ccc(O)cc1)c1c(O)cc(O)cc1O[C@@H]1O[C@H](CO)[C@@H](O)[C@H](O)[C@H]1O
Class: N
//
Compound: CCCCOC(=O)NS(=O)(=O)c1sc(CC(C)C)cc1-c1ccc(Cn2c(CC)nc3c(C)cc(C)nc32)cc1
Class: Y

###

test: chemical genetic growth profiling, strain panel (AID 1159580);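 note: tested at 20 µM; growth read once vehicle control cultures reached saturation at 30 °C; 1 = growth at the plate median or of vehicle wells; lower values mean less growth of the strain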; details: S. cerevisiae deletion strains, growth OD, locus YAL030W, strain snc1, hits give low values
Hit rate of the full screen: of about 5,500 compounds, about 2,000 (36%) were called active. Inconclusive results (about 18%) are left out. This is one part of the list.

Compound: CC(=O)OC[C@H]1O[C@@H](Oc2cc(OC(C)=O)c3c(=O)cc(-c4ccc(OC(C)=O)cc4)oc3c2)[C@H](OC(C)=O)[C@@H](OC(C)=O)[C@@H]1OC(C)=O
normalized growth: 1.01 (inactive)
//
Compound: CN1CCN(CCC=C2c3ccccc3Sc3ccc(S(=O)(=O)N(C)C)cc32)CC1
normalized growth: 0.991 (inactive)
//
Compound: CN1CCN(CCCN2c3ccccc3Sc3ccc(C(F)(F)F)cc32)CC1
normalized growth: 0.0651 (active)
//
Compound: CN(C)CCc1c[nH]c2ccc(CS(=O)(=O)N3CCCC3)cc12
normalized growth: 1.01 (inactive)
//
Compound: NC(N)=NC(N)=Nc1ccccc1
normalized growth: 1.01 (inactive)
//
Compound: Cc1onc(-c2ccccc2)c1C(=O)NC1C(=O)N2[C@@H]1SC(C)(C)[C@@H]2C(=O)O (some centres undefined)
normalized growth: 1.02 (inactive)
//
Compound: CCOC([O-])=Nc1c[n+](N2CCOCC2)no1
normalized growth: 0.991 (inactive)
//
Compound: CN(C)CCc1c[nH]c2ccc(C[C@H]3COC(=O)N3)cc12
normalized growth: 1.01 (inactive)
//
Compound: Cc1onc(-c2ccccc2Cl)c1C(=O)N[C@@H]1C(=O)N2[C@@H]1SC(C)(C)[C@@H]2C(=O)O
normalized growth: 1.02 (inactive)

###

experiment: chemical genetic growth profiling, strain panel (AID 1159580);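 note: tested at 20 µM; growth read once vehicle control cultures reached saturation at 30 °C; 1 = growth at the plate median or of vehicle wells; lower values mean less growth of the strain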; details: S. cerevisiae deletion strains, growth OD, locus YLR058C, strain SHM2, hits give low values
Out of some 5,500 compounds screened, about 2,000 (36%) were called active. Not shown: some 18% with an inconclusive outcome. The list shows a part of the results.
Entries and their normalized growth values follow.

Compound: O=C(CCBr)N1CCN(C(=O)CCBr)CC1
normalized growth: 1.01

Compound: COc1cc2c(cc1OC)-c1c(oc3c4c(ccc3c1=O)OC(C(C)C)C4)CO2 (stereo not drawn)
normalized growth: 1

Compound: C=C(C)[C@H]1Cc2c(ccc3c2O[C@@H]2COc4cc(OC)c(OC)cc4[C@@H]2C3=O)O1
normalized growth: 1.01

Compound: COc1cc2c(cc1OC)[C@@H]1C(=O)c3ccc4c(c3O[C@@H]1CO2)CC(C(C)C)O4 (stereo partly drawn)
normalized growth: 0.987

Compound: CC1(C)S[C@@H]2[C@H](NC(=O)Cc3ccccc3)C(=O)N2[C@H]1C(=O)O
normalized growth: 1

Compound: CO[C@H]1C[C@H](O[C@H]2[C@H](C)[C@@H](OC3O[C@H](C)C[C@H](N(C)C)[C@H]3OC(C)=O)[C@@H](C)C[C@]3(CO3)C(=O)[C@H](C)[C@@H](OC(C)=O)[C@@H](C)[C@@H](C)OC(=O)[C@@H]2C)O[C@@H](C)[C@@H]1OC(C)=O (stereo partly drawn)
normalized growth: 1.01

Compound: CN(C)CCc1c[nH]c2ccc(CS(=O)(=O)N3CCCC3)cc12
normalized growth: 0.991

Compound: Cc1onc(-c2ccccc2Cl)c1C(=O)N[C@@H]1C(=O)N2[C@@H]1SC(C)(C)[C@@H]2C(=O)O
normalized growth: 1.02

Reference source: PubChem BioAssay AID1159580
